- tested-system: AR T877A (Homo sapiens, UniProt P10275, T878A)
- experiment-description: Luciferase transcriptional reporter assay, mutant AR, HepG2, antagonist mode
- conditions: HepG2, 90 pM R1881, 48 hours; * denotes incomplete inhibition (otherwise 100%); read-out: Antagonism; IC50, AR construct T877A
quantity-kind: IC50 (µM)
Unit µM implied. Number only.

N#Cc1ncc(N2C(=O)C3(CCC3)N(c3ccc(C(=O)NCCCO)c(F)c3)C2=S)cc1C(F)(F)F [Cpd 40]
7.51

Endpoint output: IC50 of N#Cc1ncc(N2C(=O)C3(CCC3)N(c3ccc(OC4CCNCC4)cc3)C2=S)cc1C(F)(F)F [Cpd 35] . Value?
3.59

###

- tested-system: wild-type Androgen Receptor (AR-wt) (Homo sapiens, UniProt P10275)
- Construct: expressed in transfected cells; host or cells: LNCaP (LNCaP AR (cs))
- experiment-description: LNCaP-AR-wt AG reporter assay (ARE firefly luciferase, agonist mode)
- Type: cell-based
- conditions: maximum % stimulation (agonist response) over tested concentration range; read-out: LNCaP-AR-wt AG MAX % Stim
Listing of recorded Emax by entry.
Note: state the figure and append the unit.

Some molecules with known Emax results, for comparison:
N#Cc1ncc(N2C(=O)C3(CCC3)N(c3ccc(C(=O)NCCc4ccccn4)c(F)c3)C2=S)cc1C(F)(F)F
-0.1%
Cc1cc(N2C(=O)C3(CCC3)N(c3ccc(C(=O)Nc4ccnn4C)c(F)c3)C2=S)cnc1C#N
0.2%
N#Cc1ncc(N2C(=O)C3(CCC3)N(c3ccc(OCCN4CCNCC4)c(F)c3)C2=S)cc1C(F)(F)F
1.2%
Cc1cc(N2C(=O)C(C)(C)N(c3ccc(OC4CCN(C)CC4)cc3)C2=S)cnc1C#N
0.5%
N#Cc1ncc(N2C(=O)C3(CCC3)N(c3ccc(F)cc3)C2=S)cc1C(F)(F)F
0.9%

Endpoint output: Emax of COCCCNC(=O)c1ccc(N2C(=S)N(c3cnc(C#N)c(C(F)(F)F)c3)C(=O)C23CCC3)cc1F . Value?
0%

Endpoint output: Emax of CNS(=O)(=O)c1ccc(N2C(=S)N(c3cnc(C#N)c(C(F)(F)F)c3)C(=O)C23CCC3)cc1 . Value?
1.5%

Endpoint output: Emax of CN1CCN(CCNC(=O)c2ccc(N3C(=S)N(c4cnc(C#N)c(C(F)(F)F)c4)C(=O)C34CCC4)cc2F)CC1 . Value?
1.2%

###

- tested-system: F876L mutant Androgen Receptor (AR-F876L) (Homo sapiens, UniProt P10275, F877L)
- Construct: expressed in transfected cells; host or cells: LNCaP (LNCaP F876L)
- Sequence (P10275 1-920 F877L): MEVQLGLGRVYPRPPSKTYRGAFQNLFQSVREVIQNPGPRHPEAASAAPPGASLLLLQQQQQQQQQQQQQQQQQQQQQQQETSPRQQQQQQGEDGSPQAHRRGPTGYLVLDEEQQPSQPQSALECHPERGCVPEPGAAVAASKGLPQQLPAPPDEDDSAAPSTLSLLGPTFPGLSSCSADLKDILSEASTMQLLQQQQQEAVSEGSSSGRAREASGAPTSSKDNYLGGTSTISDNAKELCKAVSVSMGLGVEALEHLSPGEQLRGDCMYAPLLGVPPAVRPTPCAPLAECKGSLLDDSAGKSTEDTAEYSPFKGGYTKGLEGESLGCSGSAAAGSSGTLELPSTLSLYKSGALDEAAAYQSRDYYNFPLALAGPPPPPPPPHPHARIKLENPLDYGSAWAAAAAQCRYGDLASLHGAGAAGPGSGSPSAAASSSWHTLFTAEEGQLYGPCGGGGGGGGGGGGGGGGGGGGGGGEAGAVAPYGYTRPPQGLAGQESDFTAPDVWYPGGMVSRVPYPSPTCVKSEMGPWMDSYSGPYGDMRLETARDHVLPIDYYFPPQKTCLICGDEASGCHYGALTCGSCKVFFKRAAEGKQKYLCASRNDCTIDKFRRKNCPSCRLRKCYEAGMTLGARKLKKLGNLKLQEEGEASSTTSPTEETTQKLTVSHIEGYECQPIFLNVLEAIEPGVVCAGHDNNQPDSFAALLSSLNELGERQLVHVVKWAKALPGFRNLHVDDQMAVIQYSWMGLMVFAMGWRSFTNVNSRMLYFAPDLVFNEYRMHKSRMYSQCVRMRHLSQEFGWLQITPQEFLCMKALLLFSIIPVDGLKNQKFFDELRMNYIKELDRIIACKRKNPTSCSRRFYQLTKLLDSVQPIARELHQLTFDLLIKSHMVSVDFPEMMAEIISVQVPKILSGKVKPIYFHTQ
- experiment-description: LNCaP-AR-F876L ANT reporter assay (ARE firefly luciferase, antagonist mode)
- Type: cell-based
- conditions: read-out: LNCaP-AR-F876L ANT pIC50 (converted)
quantity-kind: IC50 (µM)
Unit µM implied. Number only.

Some compounds with known IC50 results, for comparison:
Cc1cc(N2C(=O)C3(CCC3)N(c3ccc(C(=O)NCC4CCOCC4)c(F)c3)C2=S)cnc1C#N
0.324
N#Cc1ncc(N2C(=O)C3(CCC3)N(c3ccc(C(=O)NCc4ccccn4)c(F)c3)C2=S)cc1C(F)(F)F
0.178
Cc1cc(N2C(=O)C3(CCC3)N(c3ccc(-c4cncc(F)c4)cc3)C2=S)cnc1C#N
0.012
Cc1cc(N2C(=O)C3(CCC3)N(c3ccc(OC4CCN(CCO)CC4)cc3)C2=S)cnc1C#N
0.525
N#Cc1ncc(N2C(=O)C3(CCC3)N(c3ccc(Oc4ccncn4)cc3)C2=S)cc1C(F)(F)F
0.251
COCCOc1ccc(N2C(=S)N(c3cnc(C#N)c(C)c3)C(=O)C23CCC3)cc1F
0.257

Under F876L mutant Androgen Receptor (AR-F876L) (Homo sapiens, UniProt P10275, F877L): IC50 value of N#Cc1ncc(N2C(=O)C3(CCC3)N(c3ccc(C(=O)NCCCN4CCCC4=O)c(F)c3)C2=S)cc1C(F)(F)F ?
0.398

Under F876L mutant Androgen Receptor (AR-F876L) (Homo sapiens, UniProt P10275, F877L): IC50 value of N#Cc1ncc(N2C(=O)C3(CCC3)N(c3ccc(C(=O)Nc4ccccc4)c(F)c3)C2=S)cc1C(F)(F)F ?
0.417

###

- tested-system: wild-type Androgen Receptor (AR-wt) (Homo sapiens)
- Construct: expressed in transfected cells; host or cells: LNCaP (LNCaP AR (cs))
- experiment-description: LNCaP-AR-wt AG reporter assay (ARE firefly luciferase, agonist mode)
- Format: cell-based
- conditions: read-out: LNCaP-AR-wt AG MAX % Stim
quantity-kind: Emax (%)
Unit % implied. Number only.

Endpoint output: Emax of C#CCNC(=O)c1ccc(N2C(=S)N(c3cnc(C#N)c(C(F)(F)F)c3)C(=O)C23CCC3)cc1F . Value?
0.5

Endpoint output: Emax of N#Cc1ncc(N2C(=O)C3(CCC3)N(c3ccc(C(=O)NCc4ccccc4)c(F)c3)C2=S)cc1C(F)(F)F . Value?
0.9

Endpoint output: Emax of N#Cc1ncc(N2C(=O)C3(CCC3)N(c3ccc(O)cc3F)C2=S)cc1C(F)(F)F . Value?
0.9

Endpoint output: Emax of CN1CCN(CCCc2ccc(N3C(=S)N(c4cnc(C#N)c(C(F)(F)F)c4)C(=O)C34CCC4)cc2)CC1 . Value?
0.7

###

- tested-system: wild-type Androgen Receptor (AR-wt) (Homo sapiens)
- Construct: expressed in transfected cells; host or cells: LNCaP (LNCaP AR (cs))
- Sequence (P10275 1-920): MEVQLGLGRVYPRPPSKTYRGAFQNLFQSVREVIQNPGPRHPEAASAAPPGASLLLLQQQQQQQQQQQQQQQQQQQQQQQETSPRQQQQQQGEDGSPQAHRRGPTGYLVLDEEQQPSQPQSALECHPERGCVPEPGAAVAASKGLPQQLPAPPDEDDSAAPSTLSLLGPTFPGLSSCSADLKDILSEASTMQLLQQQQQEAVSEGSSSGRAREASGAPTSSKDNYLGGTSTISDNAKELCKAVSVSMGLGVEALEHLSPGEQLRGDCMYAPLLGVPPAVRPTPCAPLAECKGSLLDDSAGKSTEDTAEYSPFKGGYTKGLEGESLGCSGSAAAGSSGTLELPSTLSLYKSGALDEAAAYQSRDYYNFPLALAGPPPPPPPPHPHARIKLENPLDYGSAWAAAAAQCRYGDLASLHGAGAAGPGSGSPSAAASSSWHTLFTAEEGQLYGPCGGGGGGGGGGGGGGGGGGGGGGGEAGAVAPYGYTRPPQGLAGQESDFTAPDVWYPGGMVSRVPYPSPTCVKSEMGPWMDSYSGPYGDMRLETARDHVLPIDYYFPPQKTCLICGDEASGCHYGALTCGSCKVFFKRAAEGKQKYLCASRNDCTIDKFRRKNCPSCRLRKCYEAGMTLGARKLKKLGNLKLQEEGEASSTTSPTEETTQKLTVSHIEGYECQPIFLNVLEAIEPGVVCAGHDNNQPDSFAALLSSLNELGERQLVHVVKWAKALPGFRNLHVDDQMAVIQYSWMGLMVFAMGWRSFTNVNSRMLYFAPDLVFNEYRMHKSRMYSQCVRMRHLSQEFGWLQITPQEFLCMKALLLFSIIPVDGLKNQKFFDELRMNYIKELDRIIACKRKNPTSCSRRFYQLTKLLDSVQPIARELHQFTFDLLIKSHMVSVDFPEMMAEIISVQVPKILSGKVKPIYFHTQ
- experiment-description: LNCaP-AR-wt ANT reporter assay (ARE firefly luciferase, antagonist mode)
- Type: cell-based
- conditions: antagonist mode, 400 pM R-1881 challenge; −Log10(IC50 [Molar]); read-out: LNCaP-AR-wt ANT pIC50 (converted)
quantity-kind: IC50 (nM)
Unit nM implied. Number only.

Some compounds with known IC50 results, for comparison:
N#Cc1ncc(N2C(=O)C3(CCC3)N(c3ccc(Oc4ccccc4)cc3)C2=S)cc1C(F)(F)F
417
CS(=O)(=O)N1CCC(Oc2ccc(N3C(=S)N(c4cnc(C#N)c(C(F)(F)F)c4)C(=O)C34CCC4)cc2)CC1
302
N#Cc1ncc(N2C(=O)C3(CCC3)N(c3ccc(C(F)(F)F)cc3)C2=S)cc1C(F)(F)F
295
CNC(=O)c1ccc(N2C(=S)N(c3cnc(C#N)c(C)c3)C(=O)C23CCC3)cc1C
977
N#Cc1ncc(N2C(=O)C3(CCC3)N(c3ccc(C(=O)NCCCN4CCCC4=O)c(F)c3)C2=S)cc1C(F)(F)F
1200

# input for lookup
Endpoint output: IC50 of N#Cc1ncc(N2C(=O)C3(CCC3)N(c3ccc(Oc4ccncn4)cc3)C2=S)cc1C(F)(F)F . Value?
214
